Source listed as ChEMBL document CHEMBL5058577.

Tested on: HEK-293T
Test: Multiplex assay against HEK293T
Type: toxicity, cell-based
Details: human, 12 h, 10 µM, compound concentration 10 uM, replicate 2
Would you mind telling me the reported Total Cell Count of each entry?
Reply with the value as a number alone.

stdin: Check the records and state Total Cell Count for C[C@H](N)COC(=O)[C@@H](CCCCN)NC(=O)Cc1c(-c2ccc3ccccc3c2)[nH]c2c1ccc1ccccc12
stdout: 343

stdin: Check the records and state Total Cell Count for N#Cc1c(Oc2cccc(OS(=O)(=O)CCCC(F)(F)F)c2)cccc1C(F)(F)F
stdout: 318

stdin: Tell me Total Cell Count reported for CC(C)(C)c1cc(NC(=O)Nc2ccc(-c3cn4c(n3)sc3cc(OCCN5CCOCC5)ccc34)cc2)no1
stdout: 293

stdin: Let me know recorded Total Cell Count for CC(=O)Nc1cccc2c1c(Sc1ccc(Cl)cc1)c(C)n2CC(=O)O , thanks.
stdout: 318

stdin: Provide only the value of recorded Total Cell Count for COc1cccc2c1c(NS(=O)(=O)c1ccc(Cl)s1)nn2Cc1cccc(CNC(=O)C(C)(C)O)c1
stdout: 280

stdin: Query Total Cell Count for COC[C@@H](c1ccc(C(F)(F)F)cc1)N1CCN(C2(C)CCN(C(=O)c3c(C)ncnc3C)CC2)C[C@@H]1C.O=C(O)/C=C\C(=O)O [VICRIVIROC MALEATE]
stdout: 265

stdin: Provide measured Total Cell Count value, entry: N#Cc1cc(F)cc(-c2nc(-c3ccc(F)cn3)no2)c1
stdout: 269

stdin: Note Total Cell Count for the compound shown: CCCCC(=O)N(Cc1ccc(-c2ccccc2-c2nnn[nH]2)cc1)[C@H](C(=O)O)C(C)C
stdout: 310
